Reported percentage of EdU-negative values follow for various sequences
system: hTERT-HMEC; experiment: percentage of EdU-negative (G0-arrested) nuclei per well, 72 h; higher = more G0 arrest; settings: protein concentration 0.225 µM; reference: sequence is the full UniProt precursor, the tested protein was the secreted form or ectodomain

[
  {
    "sequence-data": "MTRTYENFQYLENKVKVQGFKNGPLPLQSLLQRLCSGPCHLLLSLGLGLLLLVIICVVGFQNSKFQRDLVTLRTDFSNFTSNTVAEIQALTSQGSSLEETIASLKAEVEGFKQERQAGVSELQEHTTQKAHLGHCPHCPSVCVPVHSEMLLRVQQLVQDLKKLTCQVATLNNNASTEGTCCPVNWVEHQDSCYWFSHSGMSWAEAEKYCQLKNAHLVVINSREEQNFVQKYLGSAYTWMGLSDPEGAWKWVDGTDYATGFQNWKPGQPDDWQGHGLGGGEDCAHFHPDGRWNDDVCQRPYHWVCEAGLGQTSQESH [Q8IUN9]",
    "percentage of EdU-negative": "4.95%"
  },
  {
    "sequence-data": "MLLLINVILTLWVSCANGQVKPCDFPDIKHGGLFHENMRRPYFPVAVGKYYSYYCDEHFETPSGSYWDYIHCTQNGWSPAVPCLRKCYFPYLENGYNQNYGRKFVQGNSTEVACHPGYGLPKAQTTVTCTEKGWSPTPRCIRVRTCSKSDIEIENGFISESSSIYILNKEIQYKCKPGYATADGNSSGSITCLQNGWSAQPICINSSEKCGPPPPISNGDTTSFLLKVYVPQSRVEYQCQPYYELQGSNYVTCSNGEWSEPPRCIHPCIITEENMNKNNIKLKGRSDRKYYAKTGDTIEFMCKLGYNANTSILSFQAVCREGIVEYPRCE",
    "percentage of EdU-negative": "5.74%"
  }
]

---

system: hTERT-HMEC; assay: percentage of EdU-negative (G0-arrested) nuclei per well, 72 h; higher = more G0 arrest; settings: protein concentration 0.0357143 µM; reference: sequence is the full UniProt precursor, the tested protein was the secreted form or ectodomain;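 further: secreted proteins added to cultured cells, EdU pulse at the end, nuclei found by Hoechst imaging, EdU status from nuclear versus surrounding ring intensity ratio, PBS as neutral control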

[
  {
    "sequence-data": "MAPRGCIVAVFAIFCISRLLCSHGAPVAPMTPYLMLCQPHKRCGDKFYDPLQHCCYDDAVVPLARTQTCGNCTFRVCFEQCCPWTFMVKLINQNCDSARTSDDRLCRSVS [Q6UW32]",
    "percentage of EdU-negative, %": 4.73
  },
  {
    "sequence-data": "MELWGAYLLLCLFSLLTQVTTEPPTQKPKKIVNAKKDVVNTKMFEELKSRLDTLAQEVALLKEQQALQTVCLKGTKVHMKCFLAFTQTKTFHEASEDCISRGGTLGTPQTGSENDALYEYLRQSVGNEAEIWLGLNDMAAEGTWVDMTGARIAYKNWETEITAQPDGGKTENCAVLSGAANGKWFDKRCRDQLPYICQFGIV",
    "percentage of EdU-negative, %": 5.64
  },
  {
    "sequence-data": "MNPTLILAAFCLGIASATLTFDHSLEAQWTKWKAMHNRLYGMNEEGWRRAVWEKNMKMIELHNQEYREGKHSFTMAMNAFGDMTSEEFRQVMNGFQNRKPRKGKVFQEPLFYEAPRSVDWREKGYVTPVKNQGQCGSCWAFSATGALEGQMFRKTGRLISLSEQNLVDCSGPQGNEGCNGGLMDYAFQYVQDNGGLDSEESYPYEATEESCKYNPKYSVANDTGFVDIPKQEKALMKAVATVGPISVAIDAGHESFLFYKEGIYFEPDCSSEDMDHGVLVVGYGFESTESDNNKYWLVKNSWGEEWGMGGYVKMAKDRRNHCGIASAASYPTV",
    "percentage of EdU-negative, %": 4.81
  },
  {
    "sequence-data": "MAQTNSFFMLISSLMFLSLSQGQESQTELPNPRISCPEGTNAYRSYCYYFNEDPETWVDADLYCQNMNSGNLVSVLTQAEGAFVASLIKESSTDDSNVWIGLHDPKKNRRWHWSSGSLVSYKSWDTGSPSSANAGYCASLTSCSGFKKWKDESCEKKFSFVCKFKN",
    "percentage of EdU-negative, %": 5.51
  },
  {
    "sequence-data": "MMRTCVLLSAVLWCLTGVQCPRFTLFNKKGFIYGKTGQPDKIYVELHQNSPVLICMDFKLSKKEIVDPTYLWIGPNEKTLTGNNRINITETGQLMVKDFLEPLSGLYTCTLSYKTVKAETQEEKTVKKRYDFMVFAYREPDYSYQMAVRFTTRSCIGRYNDVFFRVLKKILDSLISDLSCHVIEPSYKCHSVEIPEHGLIHELFIAFQVNPFAPGWKGACNGSVDCEDTTNHNILQARDRIEDFFRSQAYIFYHNFNKTLPAMHFVDHSLQVVRLDSCRPGFGKNERLHSNCASCCVVCSPATFSPDVNVTCQTCVSVLTYGAKSCPQTSNKNQQYED [Q6X784]",
    "percentage of EdU-negative, %": 4.95
  },
  {
    "sequence-data": "MLTTLLPILLLSGWAFCSQDASDGLQRLHMLQISYFRDPYHVWYQGNASLGGHLTHVLEGPDTNTTIIQLQPLQEPESWARTQSGLQSYLLQFHGLVRLVHQERTLAFPLTIRCFLGCELPPEGSRAHVFFEVAVNGSSFVSFRPERALWQADTQVTSGVVTFTLQQLNAYNRTRYELREFLEDTCVQYVQKHISAENTKGSQTSRSYTSLVLGVLVGSFIIAGVAVGIFLCTGGRRC [Q9UNN8]",
    "percentage of EdU-negative, %": 4.92
  }
]
